Where do the numbers come from? From patent US20180044305A1.

System under test: Recombinant mouse PD-L1 (Mus musculus, UniProt Q9EP73)
Construct: Fc (Fc chimera); purchased R&D Systems 1019-B7-100
Sequence (Q9EP73 with tags, fused parts or gaps limits assumed): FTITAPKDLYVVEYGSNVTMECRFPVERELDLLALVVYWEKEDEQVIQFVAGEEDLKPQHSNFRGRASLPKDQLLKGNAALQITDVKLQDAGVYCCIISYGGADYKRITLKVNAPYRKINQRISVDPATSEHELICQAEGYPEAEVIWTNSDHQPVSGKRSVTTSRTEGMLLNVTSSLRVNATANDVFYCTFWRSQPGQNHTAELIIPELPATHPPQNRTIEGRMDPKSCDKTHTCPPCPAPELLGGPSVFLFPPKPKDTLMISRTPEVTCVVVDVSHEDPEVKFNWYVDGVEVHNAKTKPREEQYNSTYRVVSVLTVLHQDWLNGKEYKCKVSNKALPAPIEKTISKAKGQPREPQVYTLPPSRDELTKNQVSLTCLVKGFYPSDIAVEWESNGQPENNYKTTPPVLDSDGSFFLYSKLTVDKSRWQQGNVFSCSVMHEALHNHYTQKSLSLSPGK
Protocol description: Rescue of mouse splenocyte proliferation in the presence of recombinant PD-L1 (CFSE proliferation assay)
Type: cell-based
Condition details: compound at 100 nM; CFSE-labelled mouse splenocytes + anti-CD3/CD28 + PD-L1, 72 h; normalised to stimulated splenocyte proliferation as 100%
# binarize Percent rescue of splenocyte proliferation (@100 nM): threshold 20% inclusive, high side Y, low side N

Prompt: Has CC(O)[C@H](NC(=O)N[C@H](c1nnc(-c2ccco2)o1)C(C)C)C(=O)O (some centres unmarked) a recorded Percent rescue of splenocyte proliferation (@100 nM) greater than or equal to 20%?
Response: Y

Prompt: Quick check, Percent rescue of splenocyte proliferation (@100 nM) >= 20%? COc1ccccc1-c1nnc([C@H](CC(N)=O)NC(=O)N[C@@H](CCCCN)C(=O)O)o1
Response: Y

Prompt: Quick check: does COc1ccccc1-c1nnc([C@H](CC(N)=O)NC(=O)N[C@@H](CCSC)C(=O)O)o1 have Percent rescue of splenocyte proliferation (@100 nM) greater than or equal to 20%?
Response: N

Prompt: Decide: is the reported value of Percent rescue of splenocyte proliferation (@100 nM) for CC(O)[C@H](NC(=O)N[C@@H](CC(N)=O)c1nnc(-c2cnccn2)o1)C(=O)O (some centres unmarked) equal to or greater than 20%?
Response: Y

Prompt: Given COc1ccccc1-c1nnc([C@H](CC(N)=O)NC(=O)N[C@H](C(=O)O)C(C)O)o1 (some centres unmarked) , state whether its Percent rescue of splenocyte proliferation (@100 nM) is at least 20%.
Response: N
